Experimental system: human IL-6 (human, UniProt P05231 30-212)
Sequence (P05231 30-212 limits assumed): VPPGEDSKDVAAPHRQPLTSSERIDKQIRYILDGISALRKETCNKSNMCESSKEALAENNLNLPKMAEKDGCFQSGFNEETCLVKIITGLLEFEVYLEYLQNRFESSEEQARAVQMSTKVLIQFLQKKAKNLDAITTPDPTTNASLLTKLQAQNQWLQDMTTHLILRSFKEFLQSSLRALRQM
Assay notes: SPR (Biacore), purified antibody on Protein A chip, IL-6 flowed, 37 C
Please respond with reported pKd for every item in the list.
Recall that pKd is obtained by taking minus log10 of the concentration measured in molar.

## Input What measured pKd goes with anti-IL-6 antibody, heavy chain S35H, G66D / light chain M32L, M50D, N52S, M88Q (antibody, human IgG1, V domains shown, Human IgG1) VH: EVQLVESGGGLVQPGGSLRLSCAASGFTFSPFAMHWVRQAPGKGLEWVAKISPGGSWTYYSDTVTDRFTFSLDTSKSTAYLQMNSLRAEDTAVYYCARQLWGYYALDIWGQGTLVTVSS VL: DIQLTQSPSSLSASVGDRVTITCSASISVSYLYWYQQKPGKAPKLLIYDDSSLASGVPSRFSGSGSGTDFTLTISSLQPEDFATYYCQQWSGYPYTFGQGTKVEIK ?
## Output 9.67

## Input Now try anti-IL-6 antibody, heavy chain T65Q, G66D / light chain M32L, M50D, N52S, M88Q (antibody, human IgG1, V domains shown, Human IgG1) VH: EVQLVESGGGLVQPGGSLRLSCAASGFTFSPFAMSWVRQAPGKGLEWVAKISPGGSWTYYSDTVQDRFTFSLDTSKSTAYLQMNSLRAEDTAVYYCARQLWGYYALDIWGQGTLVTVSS VL: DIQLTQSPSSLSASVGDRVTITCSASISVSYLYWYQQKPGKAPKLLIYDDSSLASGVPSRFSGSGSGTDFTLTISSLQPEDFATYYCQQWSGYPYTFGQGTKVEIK .
## Output 9.68
